// reported IC50 for each item listed
- target: AKR1C3 (Homo sapiens (Human), UniProt P42330)
- Sequence (P42330 whole entry): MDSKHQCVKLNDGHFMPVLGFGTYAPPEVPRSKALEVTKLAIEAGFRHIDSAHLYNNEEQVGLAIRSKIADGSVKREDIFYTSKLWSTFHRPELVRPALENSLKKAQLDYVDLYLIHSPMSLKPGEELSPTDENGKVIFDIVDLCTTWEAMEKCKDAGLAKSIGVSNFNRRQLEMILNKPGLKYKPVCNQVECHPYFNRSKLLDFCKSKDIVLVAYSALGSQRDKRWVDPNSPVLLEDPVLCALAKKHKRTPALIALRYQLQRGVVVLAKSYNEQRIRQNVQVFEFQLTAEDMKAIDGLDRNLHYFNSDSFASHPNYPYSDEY
- assayProcedure: AKR1C3 enzyme inhibition assay (Coumberone to Coumberol fluorescence)
- Type: biochemical
- assayConditions: recombinant human AKR1C3, 15 min pre-incubation, 90 min at 22° C.; repeated lines = two experimental determinations
outcomeMeasure: IC50 (nM)

>>> assayresult("C[C@]12CC[C@@H]3c4ccc(OC(C(=O)O)c5ccccc5)cc4CC[C@H]3[C@@H]1CC=C2c1cncc(F)c1 (mixture of isomers) [Example 18]")
10
>>> assayresult("CCNC(=O)COc1ccc2c(c1)CC[C@@H]1[C@@H]2CC[C@]2(C)C(c3cncc(C(F)(F)F)c3)=CC[C@@H]12 [Example 19]")
53
>>> assayresult("C[C@]12CC[C@@H]3c4ccc(OCC(=O)O)cc4CC[C@H]3[C@@H]1CC=C2c1cncc(C(=O)O)c1 [Example 6]")
9.2

====

- target: AKR1C3 (Homo sapiens (Human), UniProt P42330)
- assayProcedure: AKR1C3 enzyme inhibition assay (Coumberone to Coumberol fluorescence)
- Format: biochemical
- assayConditions: recombinant human AKR1C3, 15 min pre-incubation, 90 min at 22° C.; repeated lines = two experimental determinations
outcomeMeasure: log10 IC50 (log10 of the value in nM)

>>> assayresult("Cc1ccc(C2=CC[C@H]3[C@@H]4CCc5cc(OCC(=O)O)ccc5[C@H]4CC[C@]23C)cn1")
2.13
>>> assayresult("COCC(Oc1ccc2c(c1)CC[C@@H]1[C@@H]2CC[C@]2(C)C(c3cncc(F)c3)=CC[C@@H]12)C(=O)O (mixture of isomers)")
0.60
>>> assayresult("Cc1cc(C2=CC[C@H]3[C@@H]4CCc5cc(OCC(=O)O)ccc5[C@H]4CC[C@]23C)cnn1")
0.15
>>> assayresult("CC(Oc1ccc2c(c1)CC[C@@H]1[C@@H]2CC[C@]2(C)C(c3cccnc3)=CC[C@@H]12)C(=O)O (mixture of isomers)")
0.45
>>> assayresult("CC(Oc1ccc2c(c1)CC[C@@H]1[C@@H]2CC[C@]2(C)C(c3cncc(F)c3)=CC[C@@H]12)C(=O)O (mixture of isomers)")
0.43
>>> assayresult("CC(Oc1ccc2c(c1)CC[C@@H]1[C@@H]2CC[C@]2(C)C(c3cncc(F)c3)=CC[C@@H]12)C(N)=O (mixture of isomers)")
1.30
>>> assayresult("C[C@]12CC[C@@H]3c4ccc(OCC(=O)O)cc4CC[C@H]3[C@@H]1CC=C2c1cncnc1")
1.95
>>> assayresult("C[C@]12CC[C@@H]3c4ccc(OCCCO)cc4CC[C@H]3[C@@H]1CC=C2c1cncc(F)c1")
1.73
>>> assayresult("CC(C)(CO)COc1ccc2c(c1)CC[C@@H]1[C@@H]2CC[C@]2(C)C(c3cncc(F)c3)=CC[C@@H]12")
2.09
>>> assayresult("C[C@]12CC[C@@H]3c4ccc(OCC(O)CO)cc4CC[C@H]3[C@@H]1CC=C2c1cncc(F)c1 (mixture of isomers)")
1.40
>>> assayresult("CCC(Oc1ccc2c(c1)CC[C@@H]1[C@@H]2CC[C@]2(C)C(c3cncc(F)c3)=CC[C@@H]12)C(=O)O (mixture of isomers)")
0.40
>>> assayresult("C[C@]12CC[C@@H]3c4ccc(OCCCC(=O)O)cc4CC[C@H]3[C@@H]1CC=C2c1cncc(F)c1")
1.62
